- target-entity: human IL-23R (Homo sapiens, UniProt Q5VWK5)
Where a SMILES comes first, the peptide text is derived from it. Bridges are numbered along the chain shown (N, C = ends). [ ]: non-standard residue; d: D form. 2Nal = N[C@@H](Cc1ccc2ccccc2c1)C(=O)O; AEF = NCCOc1ccc(C[C@H](N)C(=O)O)cc1; 3Pal = N[C@@H](Cc1cccnc1)C(=O)O; αMeL = CC(C)C[C@](C)(N)C(=O)O; NMeK = CN[C@@H](CCCCN)C(=O)O; Dab = NCC[C@H](N)C(=O)O; βAla = NCCC(=O)O
Simple rule here: IC50 less than 4 nM is 1 (yes), otherwise 0 (no).

[[record]]
molecule = "COc1ccc(C[C@@H]2NC(=O)[C@@H]3CCC(=O)N[C@@H](CCCCNC(=O)CC[C@@H](C(=O)N[C@@H](CCCCNC(=O)CCc4cccnc4)C(N)=O)NC(=O)[C@](C)(CC(C)C)NC(=O)[C@H](Cc4ccc5ccccc5c4)NC2=O)C(=O)N[C@@H]([C@@H](C)O)C(=O)N[C@@H](C(C)C)C(=O)N[C@@H](Cc2c[nH]c4ccccc24)C(=O)N[C@@H](CCC(N)=O)C(=O)N3)cc1"
target_entity = "human IL-23R (Homo sapiens, UniProt Q5VWK5)"
class = "0 (no)"

[[record]]
molecule = "CC(=O)N[C@@H](CC(=O)O)C(=O)N[C@H]1CCC(=O)NCCCC[C@@H](C(=O)N[C@@H](CCCNC(=N)N)C(N)=O)NC(=O)[C@H](CC(C)C)NC(=O)[C@H](Cc2ccc3ccccc3c2)NC(=O)[C@H](Cc2c[nH]c3ccccc23)NC(=O)[C@@H]2CSCC(=O)CSC[C@H](NC(=O)[C@H](CO)NC1=O)C(=O)N[C@@H](Cc1c[nH]c3ccccc13)C(=O)N[C@@H](CCC(N)=O)C(=O)N2 [Ref 17, reference compound]"
target_entity = "human IL-23R (Homo sapiens, UniProt Q5VWK5)"
class = "0 (no)"

[[record]]
molecule = "CC(C)C[C@]1(C)NC(=O)[C@H](Cc2ccc3ccccc3c2)NC(=O)[C@H](Cc2ccc(OCCN)cc2)NC(=O)[C@@H]2CCC(=O)N[C@@H](CCCCNC(=O)CC[C@@H](C(=O)N[C@@H](CCN)C(=O)N[C@@H](Cc3cccnc3)C(N)=O)NC1=O)C(=O)N[C@@H]([C@@H](C)O)C(=O)N[C@@H](C(C)C)C(=O)N[C@@H](Cc1c[nH]c3ccccc13)C(=O)N[C@@H](CCC(N)=O)C(=O)N2 [Compound 2] (KTVWQE[AEF][2Nal][αMeL]E[Dab][3Pal]-NH2; lactam 1-10, N-6)"
target_entity = "human IL-23R (Homo sapiens, UniProt Q5VWK5)"
class = "1 (yes)"

[[record]]
molecule = "CNC(=O)[C@H](Cc1cccnc1)NC(=O)[C@H](CCN)NC(=O)[C@@H]1CCC(=O)NCC[C@@H]2NC(=O)CC[C@H](NC(=O)[C@H](CCC(N)=O)NC(=O)[C@H](Cc3c[nH]c4ccccc34)NC2=O)C(=O)N[C@@H](Cc2ccc(OCCN)cc2)C(=O)N[C@@H](Cc2ccc3ccccc3c2)C(=O)N[C@@](C)(CC(C)C)C(=O)N1"
target_entity = "human IL-23R (Homo sapiens, UniProt Q5VWK5)"
class = "1 (yes)"

[[record]]
molecule = "CC[C@H](C)[C@@H]1NC(=O)[C@@H]2CCCCNC(=O)CC[C@@H](C(=O)N[C@@H](CCN)C(=O)NCCc3cccnc3)NC(=O)[C@](C)(CC(C)C)NC(=O)[C@H](Cc3ccc4ccccc4c3)NC(=O)[C@H](Cc3ccc(OCCN)cc3)NC(=O)[C@H](CCC(=O)N2)NC(=O)[C@H](CCC(N)=O)NC(=O)[C@H](Cc2c[nH]c3ccccc23)NC(=O)[C@H](C(C)C)NC1=O"
target_entity = "human IL-23R (Homo sapiens, UniProt Q5VWK5)"
class = "1 (yes)"

[[record]]
molecule = "CCCOc1ccc(C[C@@H]2NC(=O)[C@@H]3CCC(=O)N[C@@H](CCCCNC(=O)CC[C@@H](C(=O)NCCCCc4cccnc4)NC(=O)[C@](C)(CC(C)C)NC(=O)[C@H](Cc4ccc5ccccc5c4)NC2=O)C(=O)N[C@@H]([C@@H](C)CC)C(=O)N[C@@H](C(C)C)C(=O)N[C@@H](Cc2c[nH]c4ccccc24)C(=O)N[C@@H](CCC(N)=O)C(=O)N3)cc1"
target_entity = "human IL-23R (Homo sapiens, UniProt Q5VWK5)"
class = "0 (no)"

[[record]]
molecule = "CC[C@H](C)[C@@H]1NC(=O)[C@@H]2CCCCNC(=O)CC[C@@H](C(=O)NCCc3cccnc3)NC(=O)[C@](C)(C(C)C)NC(=O)[C@H](Cc3ccc4ccccc4c3)NC(=O)[C@H](Cc3ccc(OCCN)cc3)NC(=O)[C@H](CCC(=O)N2)NC(=O)[C@H](CCC(N)=O)NC(=O)[C@H](Cc2c[nH]c3ccccc23)NC(=O)[C@H](C(C)C)NC1=O"
target_entity = "human IL-23R (Homo sapiens, UniProt Q5VWK5)"
class = "0 (no)"

[[record]]
molecule = "CNC(=O)[C@H](Cc1cccnc1)NC(=O)[C@H](CCN)NC(=O)[C@@H]1CCC(=O)NCCCC[C@H]2C(=O)NCCC(=O)N[C@@H](Cc3c[nH]c4ccccc34)C(=O)N[C@@H](CCC(N)=O)C(=O)N[C@@H](CCC(=O)N2C)C(=O)N[C@@H](Cc2ccc(OCCN)cc2)C(=O)N[C@@H](Cc2ccc3ccccc3c2)C(=O)N[C@@](C)(CC(C)C)C(=O)N1 [Compound 80] ([NMeK][βAla]WQE[AEF][2Nal][αMeL]E[Dab][3Pal]-NHMe; lactam 1-9, N-5)"
target_entity = "human IL-23R (Homo sapiens, UniProt Q5VWK5)"
class = "1 (yes)"

[[record]]
molecule = "COc1ccc(C[C@@H]2NC(=O)[C@@H]3CCC(=O)N[C@@H](CCCCNC(=O)CC[C@@H](C(=O)N[C@@H](CCCCNC(=O)c4cncnc4)C(N)=O)NC(=O)[C@](C)(CC(C)C)NC(=O)[C@H](Cc4ccc5ccccc5c4)NC2=O)C(=O)N[C@@H]([C@@H](C)O)C(=O)N[C@@H](C(C)C)C(=O)N[C@@H](Cc2c[nH]c4ccccc24)C(=O)N[C@@H](CCC(N)=O)C(=O)N3)cc1"
target_entity = "human IL-23R (Homo sapiens, UniProt Q5VWK5)"
class = "0 (no)"

[[record]]
molecule = "CC[C@H](C)[C@@H]1NC(=O)[C@@H]2CCCCNC(=O)CC[C@@H](C(=O)N[C@@H](CCN)C(=O)N[C@H](Cc3cccnc3)C(N)=O)NC(=O)[C@](C)(C(C)C)NC(=O)[C@H](Cc3ccc4ccccc4c3)NC(=O)[C@H](Cc3ccc(C)cc3)NC(=O)[C@H](CCC(=O)N2)NC(=O)[C@H](CCC(N)=O)NC(=O)[C@H](Cc2c[nH]c3ccccc23)NC(=O)[C@H](C(C)C)NC1=O"
target_entity = "human IL-23R (Homo sapiens, UniProt Q5VWK5)"
class = "0 (no)"

